system: U1285 (lung) cancer cells; assay: MTT cytotoxicity test, 72 h, U1285; assay type: cell-based, human; details: Homo sapiens, mean ± S.D., read-out: IC50 U-1285
RESULT TYPE: IC50 (µM)

INSERT INTO assay_data (molecular_string, readout_qualifier, result) VALUES
  ('O=C(CCCC[C@@H]1SC[C@@H]2NC(=O)N[C@@H]21)N/N=C1\C(=O)c2cccnc2-c2ncccc21', '=', 28.1),
  ('O=C(CCCC[C@@H]1SC[C@@H]2NC(=O)N[C@@H]21)NN=C1c2cccnc2-c2ncccc21', '>', 50);

---

system: MDA-MB-231 (breast) cancer cells; assay: MTT cytotoxicity test, 72 h, MDA-MB-231; type: cell-based, human; details: mean ± S.D.
pIC50: −log10 of the molar value.
RESULT TYPE: pIC50

INSERT INTO assay_data (compound, result) VALUES
  ('O=C(CCCC[C@@H]1SC[C@@H]2NC(=O)N[C@@H]21)NN=C1c2ccc[n+]3c2-c2c1ccc[n+]2[Cu-2]3([Cl])[Cl] [Complex 1, [Cu(dafone-biotin)Cl2]]', 5.68),
  ('N.N.[Cl][Pt][Cl] [Cisplatin, cisplatin, reference compound]', 4.52),
  ('O=C(CCCC[C@@H]1SC[C@@H]2NC(=O)N[C@@H]21)NN=C1C(=O)c2ccc[n+]3c2-c2c1ccc[n+]2[Cu-2]31[n+]2cccc3ccc4ccc[n+]1c4c32.O=[N+]([O-])[O-].O=[N+]([O-])[O-] [Complex 4, [Cu(phen)(phendione-biotin)](NO3)2]', 6.22),
  ('O=C(CCCC[C@@H]1SC[C@@H]2NC(=O)N[C@@H]21)NN=C1C(=O)c2ccc[n+]3c2-c2c1ccc[n+]2[Cu-2]3([Cl])[Cl] [Complex 2, [Cu(phendione-biotin)Cl2]]', 5.85);
